Below, each entry is listed with its recorded IC50.
Target: interaction between GST-MAGEA11 MHD and FAM-PCF11_4 peptide (MAGE-A11:PCF11) (Homo sapiens (Human), UniProt P43364)
Sequence (P43364 218-429): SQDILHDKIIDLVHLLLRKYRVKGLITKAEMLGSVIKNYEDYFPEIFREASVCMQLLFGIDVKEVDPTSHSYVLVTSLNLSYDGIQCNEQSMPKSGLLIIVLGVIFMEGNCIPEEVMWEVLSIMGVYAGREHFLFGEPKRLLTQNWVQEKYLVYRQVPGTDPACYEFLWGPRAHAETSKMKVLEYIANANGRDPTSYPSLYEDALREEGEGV
Experiment: TR-FRET dose response competition assay for disruption of MAGE-A11:PCF11 binding
Details: Dose response TR-FRET screening of nine scaffold groups against MAGE-A11:PCF11; read-out: consensus IC50
Source text: TR-FRET Assays and High-throughput Screen. Terbium-anti-GST antibody, 1 M Tris pH 7.5 1 M MgCl2 and 1 M DTT were purchased from Invitrogen (Carlsbad, CA), BSA was purchased from Sigma (St. Louis, MO). Dimethyl sulfoxide (DMSO) was purchased from Fisher Scientific (Pittsburgh, PA). Black 384-well low volume plates and 384-well polypropylene compound plates were purchased from Corning Incorporated (Tewksbury, MA). […]
Write your answer as a measured quantity: the number, then the unit.

// solved cases for IC50 follow
* CC(C)C(NC1=C(Cl)C(=O)c2ccccc2C1=O)C(=O)O (centres unmarked) | 587 µM
* COc1cccc(CNCCCNc2ccnc3cc(-c4ccc(C(F)(F)F)cc4)ccc23)c1O | 9.52 µM
* Cc1ccccc1NC1=C(N)C(=O)c2ccccc2C1=O | 72.2 µM

Exam item: Recorded IC50 for CCCCn1c(=O)[nH]c(=O)c2c1nc(-c1ccc(OCC)c(OC)c1)n2CCOC , please?
Marked response: 69.9 µM

Exam item: How about this molecule: COc1ccc(-c2cc3nc[nH]c(=O)c3s2)cc1
Marked response: 69.9 µM

Exam item: Also need CCCCn1c(=O)[nH]c(=O)c2c1nc(-c1cccc(F)c1)n2C , thanks.
Marked response: 69.9 µM

Exam item: Then what about the molecule CCCCn1c(=O)[nH]c(=O)c2c1nc(-c1ccc(OC)c(C)c1)n2C ?
Marked response: 69.9 µM

Exam item: Then this molecule: Cc1cc(C)c(C2Nc3ccccc3C(=O)N2CCCN2CCOCC2)cc1C (centres unmarked)
Marked response: 62.3 µM

Exam item: Try this molecule too: CCCN1C(=O)c2ccccc2NC1c1ccc(Cl)cc1Cl (centres unmarked)
Marked response: 69.9 µM

Exam item: Same again, this time with COCCCn1c(-c2cccc(Cl)c2)nc2c1c(=O)[nH]c(=O)n2Cc1ccccc1
Marked response: 69.9 µM

Exam item: Follow-up item: CCCn1c(=O)[nH]c(=O)c2c1nc(-c1cccc(Br)c1)n2CCOC
Marked response: 69.9 µM

====

target: interaction between GST-MAGEA11 MHD and FAM-PCF11_4 peptide (MAGE-A11:PCF11) (Homo sapiens (Human)); assay: TR-FRET dose response competition assay for disruption of MAGE-A11:PCF11 binding; conditions: Table 8, representative compounds; read-out: TR-FRET IC50
Quantity measured: pIC50
Hey, just a heads up that pIC50 is the negative log base 10 of the concentration in molar.

Use these answered entries as a reference point.
• c1ccc(Cc2ccc3c(NCCCNCc4cccc5c4OCO5)ccnc3c2)cc1 [SJ000311308] = 4.34
• COc1cccc(CNCCCNc2ccnc3cc(-c4ccc(C(F)(F)F)cc4)ccc23)c1O [SJ000311279] = 5.02
• c1cc(CNCCCNc2ccnc3cc(-c4ccc5c(c4)OCO5)ccc23)c2c(c1)OCO2 [SJ000311292] = 4.52

Exam item: pIC50 for FC(F)(F)Oc1ccc(CNCCCNc2ccnc3cc(C(F)(F)F)ccc23)cc1 [SJ000521050] ?
Marked response: 4.16

Exam item: Now consider CC(C)(C)c1ccc(-c2ccc3c(NCCCNCc4cccc5c4OCO5)ccnc3c2)cc1 [SJ000311288] and answer again.
Marked response: 5.16

Exam item: And then FC(F)(F)c1ccc2c(NCCCNCc3cccc4c3OCO4)ccnc2c1 [SJ000521048] , what is it?
Marked response: 4.16
